SYSTEM_TESTED: Purified bacterial β-glucuronidases (Purified GUS) (UniProt P05804)
Sequence (P05804 whole entry): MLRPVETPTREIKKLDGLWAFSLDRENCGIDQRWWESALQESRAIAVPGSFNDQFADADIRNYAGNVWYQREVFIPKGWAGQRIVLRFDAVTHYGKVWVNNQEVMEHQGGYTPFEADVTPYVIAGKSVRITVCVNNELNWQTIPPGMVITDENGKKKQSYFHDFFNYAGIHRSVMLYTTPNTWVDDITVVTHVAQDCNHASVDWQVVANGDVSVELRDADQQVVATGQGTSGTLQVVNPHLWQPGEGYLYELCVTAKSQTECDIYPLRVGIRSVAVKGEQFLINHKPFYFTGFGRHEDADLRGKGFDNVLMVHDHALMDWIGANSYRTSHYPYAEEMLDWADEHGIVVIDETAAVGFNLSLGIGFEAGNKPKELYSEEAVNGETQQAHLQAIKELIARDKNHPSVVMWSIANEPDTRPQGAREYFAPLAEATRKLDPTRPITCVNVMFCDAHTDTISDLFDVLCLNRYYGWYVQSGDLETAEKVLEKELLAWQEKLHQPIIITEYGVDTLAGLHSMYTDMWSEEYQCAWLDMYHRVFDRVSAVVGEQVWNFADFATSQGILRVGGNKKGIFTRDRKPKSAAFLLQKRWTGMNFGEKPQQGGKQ
Reported IC50 by item:

[
  {
    "COMPOUND_STRUCTURE_STRING": "COc1ccc(Br)c(CC(=O)N(CCO)Cc2cc3cc(C)cc(C)c3[nH]c2=O)c1",
    "IC50, nM": 580
  },
  {
    "COMPOUND_STRUCTURE_STRING": "Cc1cc(C)c2[nH]c(=O)c(CN(CCO)C(=O)Cc3ccccc3Br)cc2c1",
    "IC50, nM": 920
  },
  {
    "COMPOUND_STRUCTURE_STRING": "Cc1cc(C)c2[nH]c(=O)c(CN(CCO)C(=O)Cc3ccccc3Cl)cc2c1",
    "IC50, nM": 570
  }
]

Reference for the values: patent US20220125778A1
